Provide the reported log10 of IC50 of each item.
target: human plasma kallikrein (Homo sapiens, UniProt P03952); test: Anti-plasma kallikrein activity: inhibition of S-2302 decomposition; format: biochemical; conditions: Table 2; S-2302 substrate, pH 7.8, 37° C.; read-out: Plasma Kallikrein S-2302 (I50)
Sequence (P03952 391-638 limits assumed): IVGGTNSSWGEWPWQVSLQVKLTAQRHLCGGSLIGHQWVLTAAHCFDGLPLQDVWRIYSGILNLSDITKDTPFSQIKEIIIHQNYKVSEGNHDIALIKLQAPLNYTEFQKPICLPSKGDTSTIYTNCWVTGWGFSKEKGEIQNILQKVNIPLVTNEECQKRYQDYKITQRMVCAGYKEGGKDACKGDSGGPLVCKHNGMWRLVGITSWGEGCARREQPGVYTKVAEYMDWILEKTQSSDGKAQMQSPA
Sequence (P03952 20-390 partner limits assumed): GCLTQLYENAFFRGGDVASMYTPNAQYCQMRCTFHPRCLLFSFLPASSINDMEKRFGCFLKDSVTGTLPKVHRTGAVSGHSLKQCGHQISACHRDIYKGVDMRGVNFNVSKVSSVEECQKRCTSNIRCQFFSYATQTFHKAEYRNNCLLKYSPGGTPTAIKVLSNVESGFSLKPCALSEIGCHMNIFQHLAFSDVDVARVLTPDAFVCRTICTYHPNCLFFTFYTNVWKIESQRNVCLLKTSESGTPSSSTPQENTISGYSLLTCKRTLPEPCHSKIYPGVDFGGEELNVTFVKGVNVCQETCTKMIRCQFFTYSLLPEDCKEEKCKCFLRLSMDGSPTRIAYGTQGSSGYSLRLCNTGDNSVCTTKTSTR
Counter-ions that a name gives are not always drawn.
Note the log scale: values are log10 of IC50 expressed in µM.

Suppose we examine the molecule CC1CCC(NC(=O)[C@H](Cc2ccc(OCc3ccccc3)cc2)NC(=O)c2ccc(CN)cc2)CC1 (stereo partly shown) ; what log10 of IC50 value has been reported?
1.78

Suppose we examine the molecule NC[C@H]1CC[C@H](C(=O)N[C@@H](Cc2ccc(OCc3ccc(Cl)c(Cl)c3)cc2)C(=O)Nc2ccncc2)CC1 ; what log10 of IC50 value has been reported?
-0.39

Suppose we examine the molecule CC(=O)c1ccc(NC(=O)[C@H](Cc2ccc(OC(=O)OCc3ccccc3Br)cc2)NC(=O)[C@H]2CC[C@H](CN)CC2)cc1 ; what log10 of IC50 value has been reported?
-0.43

Suppose we examine the molecule NC[C@H]1CC[C@H](C(=O)N[C@@H](Cc2ccccc2)C(=O)Nc2ccc(C(=O)c3ccccc3)cc2)CC1 ; what log10 of IC50 value has been reported?
0.28

Suppose we examine the molecule CC(=O)c1ccc(NC(=O)[C@H](Cc2ccc([N+](=O)[O-])cc2)NC(=O)[C@H]2CC[C@H](CN)CC2)cc1 [compound 130, hydrochloride] ; what log10 of IC50 value has been reported?
0.92
